# PROTOCOL SUMMARY: total protein half-life in vivo (active degradation + dilution); higher = more stable protein
# SETUP CONDITIONS: wild type E. coli NCM3722; growth: N-lim chemostat; doubling time 6 h
QUANTITY MEASURED: total protein half-life in vivo (h)
I only need the number, in h, no unit after it.

Value of total protein half-life in vivo reported for the sequence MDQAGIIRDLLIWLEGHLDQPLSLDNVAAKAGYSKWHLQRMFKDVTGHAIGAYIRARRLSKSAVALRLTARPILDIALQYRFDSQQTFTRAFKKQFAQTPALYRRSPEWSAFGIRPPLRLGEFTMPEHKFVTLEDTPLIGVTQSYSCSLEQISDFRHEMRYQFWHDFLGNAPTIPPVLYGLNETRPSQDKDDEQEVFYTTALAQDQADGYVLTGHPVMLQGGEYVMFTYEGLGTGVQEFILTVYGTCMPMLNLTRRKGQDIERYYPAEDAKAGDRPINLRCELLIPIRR [P0ACI0] is 5.15

So, MQERHTEQDYRALLIADTPIIDVRAPIEFEHGAMPAAINLPLMNNDERAAVGTCYKQQGSDAALALGHKLVAGEIRQQRMDAWRAACLQNPQGILCCARGGQRSHIVQSWLHAAGIDYPLVEGGYKALRQTAIQATIELAQKPIVLIGGCTGSGKTLLVQQQPNGVDLEGLARHRGSAFGRTLQPQLSQASFENLLAAEMLKTDARQNLRLWVLEDESRMIGSNHLPECLRERMTQAAIAVVEDPFEIRLERLNEEYFLRMHHDFTHAYGDEQGWQEYCEYLHHGLSAIKRRLGLQRYNELAARLDAALTTQLTTGSTDGHLAWLVPLLEEYYDPMYRYQLEKKAEKVVFRGEWAEVAEWVKAR ? Its total protein half-life in vivo was 4.54

* * *

# PROTOCOL SUMMARY: total protein half-life in vivo (active degradation + dilution); higher = more stable protein
# SETUP CONDITIONS: E. coli NCM3722 delta-clpP delta-lon delta-hslV; growth: N-lim chemostat; doubling time 6 h
QUANTITY MEASURED: total protein half-life in vivo (h)
# number only, unit h dropped from output

Query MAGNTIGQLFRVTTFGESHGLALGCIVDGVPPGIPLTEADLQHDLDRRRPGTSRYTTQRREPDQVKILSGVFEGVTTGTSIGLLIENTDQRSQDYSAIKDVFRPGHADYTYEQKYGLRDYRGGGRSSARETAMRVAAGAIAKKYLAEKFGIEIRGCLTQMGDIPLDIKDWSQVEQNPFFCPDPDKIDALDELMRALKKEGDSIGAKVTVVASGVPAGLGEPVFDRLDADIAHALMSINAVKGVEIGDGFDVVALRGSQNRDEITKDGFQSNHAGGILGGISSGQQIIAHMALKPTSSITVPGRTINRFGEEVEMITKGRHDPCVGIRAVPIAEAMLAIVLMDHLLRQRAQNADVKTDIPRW yields total protein half-life in vivo of 5.73

The sequence identified as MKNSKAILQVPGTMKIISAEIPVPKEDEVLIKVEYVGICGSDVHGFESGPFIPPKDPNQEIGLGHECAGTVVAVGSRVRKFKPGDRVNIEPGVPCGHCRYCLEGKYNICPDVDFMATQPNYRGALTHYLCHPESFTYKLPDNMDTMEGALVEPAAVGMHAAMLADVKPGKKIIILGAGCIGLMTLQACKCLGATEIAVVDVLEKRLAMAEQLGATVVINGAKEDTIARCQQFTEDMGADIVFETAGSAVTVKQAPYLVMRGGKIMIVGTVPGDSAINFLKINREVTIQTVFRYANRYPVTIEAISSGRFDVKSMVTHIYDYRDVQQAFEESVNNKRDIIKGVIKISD registered its total protein half-life in vivo at 4.54
